- TESTED SYSTEM: Histone acetyltransferase KAT2B (Homo sapiens)
- Sequence (Q92831 whole entry): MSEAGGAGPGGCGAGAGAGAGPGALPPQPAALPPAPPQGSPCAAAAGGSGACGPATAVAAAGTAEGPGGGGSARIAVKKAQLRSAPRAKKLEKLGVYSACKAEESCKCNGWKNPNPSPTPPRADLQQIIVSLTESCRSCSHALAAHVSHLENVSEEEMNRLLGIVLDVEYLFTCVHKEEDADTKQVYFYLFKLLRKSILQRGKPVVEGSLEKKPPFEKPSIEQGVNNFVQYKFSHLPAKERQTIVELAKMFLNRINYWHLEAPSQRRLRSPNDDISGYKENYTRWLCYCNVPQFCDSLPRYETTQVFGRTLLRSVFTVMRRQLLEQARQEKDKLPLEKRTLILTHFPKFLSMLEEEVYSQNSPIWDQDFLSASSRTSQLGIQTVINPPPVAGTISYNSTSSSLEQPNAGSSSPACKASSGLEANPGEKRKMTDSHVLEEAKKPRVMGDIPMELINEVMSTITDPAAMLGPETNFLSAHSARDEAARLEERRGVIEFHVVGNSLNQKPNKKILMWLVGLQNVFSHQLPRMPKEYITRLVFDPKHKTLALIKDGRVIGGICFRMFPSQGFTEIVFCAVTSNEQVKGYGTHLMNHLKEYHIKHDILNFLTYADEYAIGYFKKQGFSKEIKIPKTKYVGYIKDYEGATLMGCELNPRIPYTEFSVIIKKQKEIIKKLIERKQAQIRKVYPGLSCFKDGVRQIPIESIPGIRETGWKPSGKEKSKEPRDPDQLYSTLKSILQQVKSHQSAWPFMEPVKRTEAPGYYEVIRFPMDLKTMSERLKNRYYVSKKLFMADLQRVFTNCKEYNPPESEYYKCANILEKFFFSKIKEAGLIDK
- PROTOCOL TEXT: Inhibition of histone acetylase activity of human recombinant PCAF expressed in Escherichia coli using biotinylated oligopeptide sequences from histone H3 (1-21) substrate by In-vitro time-resolved fluorescence immunosorbent acetyltransferase assay
pIC50: −log10 of the molar value.
VALUE TYPE: pIC50

> print(dat)
                         substance.smiles  obs.value
1  O=c1c2ccc([N+](=O)[O-])cc2sn1Cc1ccccc1       5.12

a. O=c1c2cccnc2sn1-c1ccccc1
b. Cc1cnc2sn(-c3ccc(Oc4ccccc4)cc3)c(=O)c2c1
Task item: # return whichever of a and b has the smaller pIC50 Use the label to indicate which entry you chose.
Reply: b
(b: 4.89, a: 5.11)
